Test: inhibitors of TNFa-induced NFkB p65 translocation, primary screen, imaging, HUVEC, MLSMR starter and 10KST1 sets (AID 438);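 note: compound added about 3h40 before a 20 min TNFalpha stimulation; signal is the nuclear over cytoplasmic p65 intensity ratio per well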
Conditions: HUVEC TNFa-induced p65 nuclear translocation; at 2 µM, stronger effect = higher value, 0% TNFa-plus-vehicle, 100% no-TNFa wells
quantityMeasured: inhibition (%)
Form entry: value (%) — number only.

compound="CCCOc1cccc(C2C(C(=O)c3ccc(C)o3)=C(O)C(=O)N2CCCN(C)C)c1 (stereo not drawn)" assayvalue=3.5
compound=COc1cccc(-c2nnc3sc(-c4ccc(Cl)cc4)nn23)c1 assayvalue=3.2
compound=CC(=O)c1c(C)c2c(n1CCN(C)C)CCCC2 assayvalue=-10
compound="COCc1[nH]nc2c1C(c1cccc(OC)c1)C(C#N)=C(N)O2 (stereo not drawn)" assayvalue=-2.3
compound=CN(C)c1nc2sc3c(c2c(=O)n1C)CC(C)(C)OC3 assayvalue=-12.1
compound=CO[C@H]1C=CO[C@@]2(C)Oc3c(C)c(O)c4c(O)c(c(C=NN5CCN(C)CC5)c(O)c4c3C2=O)NC(=O)C(C)=CC=C[C@H](C)[C@H](O)[C@@H](C)[C@@H](O)[C@@H](C)[C@H](OC(C)=O)[C@@H]1C assayvalue=-3.9
compound=CC(C)(C)c1ccc(C(=O)C=[N+]=[N-])cc1 assayvalue=-4.7
compound=Cc1cc(C)n(C(=O)CNC(=O)CCc2ccccc2)n1 assayvalue=-0.6
compound="CCOC(=O)C1=C(c2ccccc2)NC(SCC(=O)Nc2ccccc2C)=C(C#N)C1c1ccco1 (stereo not drawn)" assayvalue=-4.2
compound=COc1ccc(C(=O)Nc2cccnc2)cc1C(=O)Nc1cccnc1 assayvalue=4.4

The recorded inhibition for entry Oc1ccc2ccccc2c1/C=N/n1cnnc1 equals -5.9

The recorded inhibition for entry CCCOc1ccc(N2C(=O)C3ON(c4ccccc4)C(c4ccc(O)c(OC)c4)C3C2=O)cc1 (stereo not drawn) equals -5.2

The recorded inhibition for entry CCCCOc1ccc(CC(=O)NO)cc1 equals -10.2

----------
Test: inhibitors of mutant huntingtin aggregation, primary screen, imaging, exon1htt(103Q)mCFP cells, high-content imaging (AID 483);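 note: compound exposure lasted 3 days before fixation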
Settings: exon1htt(103Q)mCFP cell line, aggregate imaging, at 2 µM; stronger effect = higher value
quantityMeasured: inhibition of aggregation (%)
Form entry: value (%) — number only.

compound="COC(=O)C(NC(C)=O)(Nc1ccccn1)C(F)(F)F (configuration not stated)" assayvalue=12.2
compound=Nc1nc(F)nc2c1ncn2[C@@H]1O[C@H](CO)[C@@H](O)[C@@H]1O assayvalue=-1.5
compound="Cc1ccc(NC(=O)CSC2=C(C#N)C(c3ccc4c(c3)OCO4)CC(=O)N2)cc1C (configuration not stated)" assayvalue=-10.3

The recorded inhibition of aggregation for entry CC(=O)Nc1ccc(S(=O)(=O)Nc2nc3n(n2)C(c2ccccc2)CC(=O)N3)cc1 (configuration not stated) equals -5.2

The recorded inhibition of aggregation for entry CCS(=O)(=O)CCn1c([N+](=O)[O-])cnc1C equals 9.6

The recorded inhibition of aggregation for entry OCC(O)CN1CCN(c2ccccc2)CC1 (configuration not stated) equals -0.5

The recorded inhibition of aggregation for entry CCOC(=O)c1[nH]c2ccc(Br)cc2c1NC(=O)CCN1CCC(C(=O)OCC)CC1 equals 2.2

The recorded inhibition of aggregation for entry N=c1c(C(=O)NCc2ccccc2)cc2c(=O)n3ccccc3nc2n1Cc1ccco1 equals -10

----------
Assay: inhibitors of E-selectin induction by TNFa, primary screen, imaging, HUVEC, immunofluorescence, MLSMR starter and 10KST1 sets (AID 487);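 note: signal is fraction of cell area covered by stained E-selectin grains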
Conditions: HUVEC TNFalpha-induced E-selectin immunofluorescence imaging, at 2 µM; stronger effect = higher value
Active and inactive are the calls of the source.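 Rule for the calls: active = visually confirmed hit in the image check and inhibition above 20%; inconclusive = visually confirmed hit but inhibition not above 20%; inactive = no visual hit in the image check.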
Attribute: inhibition

Example molecules with recorded inhibition:
molecule="OC(CCN1CCCC1)(c1ccccc1)C1CCCCC1 (stereo not drawn)" assayvalue="-40.8% (inactive)"
molecule=COc1ccccc1N(Cc1cc2cccc(C)c2[nH]c1=O)C(=O)C(C)C assayvalue="-118% (inactive)"

Now for a further molecule.
The recorded inhibition for entry CN1CCc2c(sc3c2c(=O)n(-c2ccccc2)c2nnc(SCc4ccccc4)n32)C1 equals -95.1% (inactive)

----------
Attribute: inhibition
Assay: inhibitors of Chlamydomonas gravitaxis, primary screen, whole organism, Chlamydomonas reinhardtii, WT vs cilia-less mutant, absorbance, 96-well (AID 463189);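 note: 0% = wild type cc124 cells in DMSO and 100% = ciliumless bld1 mutant cells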
Conditions: OD600 absorbance, 2 days, at 10 µM, stronger effect = higher value
Form entry: value (%) — number only.

compound=CCOC(=O)CSc1nc(C)c(C(C)=O)cc1C#N quantitymeasured=inhibition assayvalue=43.9
compound=CCOC(=O)CCc1c(C)c(C#N)c2nc3ccccc3n2c1-n1ccnc1C quantitymeasured=inhibition assayvalue=21.4

Now for a further compound.
The recorded inhibition for entry CC(C)CC(C(=O)O)C(C)CC(=O)Nc1ccn(-c2ccccc2)n1 (stereo not drawn) equals 13.3

----------
Experiment: inhibitors of TNFa-induced NFkB p65 translocation, primary screen, imaging, HUVEC, MLSMR starter and 10KST1 sets (AID 438);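 note: compound added about 3h40 before a 20 min TNFalpha stimulation; signal is the nuclear over cytoplasmic p65 intensity ratio per well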
Details: HUVEC TNFa-induced p65 nuclear translocation; at 2 µM, stronger effect = higher value, 0% TNFa-plus-vehicle, 100% no-TNFa wells
quantityMeasured: inhibition (%)
Form entry: value (%) — number only.

Example molecules with recorded inhibition:
molecule=O=C(Nc1cccnc1)c1cccnc1 quantitymeasured=inhibition assayvalue=0.9
molecule=CC1(C)Cc2c(sc3nc(SCC#N)n(C4CCCCC4)c(=O)c23)CO1 quantitymeasured=inhibition assayvalue=-10.8
molecule=COc1nc(NS(=O)(=O)c2ccc(C)cc2)nc(C)c1Cl quantitymeasured=inhibition assayvalue=3.9
molecule="COc1cc(C2CC(C(F)(F)F)n3ncc(C(=O)O)c3N2)cc(OC)c1OC (configuration not stated)" quantitymeasured=inhibition assayvalue=-6.9
molecule=CN1c2ccccc2N(C)C1c1c(O)ccc2ccccc12 quantitymeasured=inhibition assayvalue=-22

The recorded inhibition for entry O=S(=O)(NCc1cccnc1)c1cccc2nsnc12 equals -2.6

The recorded inhibition for entry CCCCCCCC(=O)OCC(=O)[C@@]1(O)CC[C@H]2[C@@H]3CCC4=CC(=O)CC[C@]4(C)[C@H]3[C@@H](O)C[C@@]21C equals -8.2

The recorded inhibition for entry Cc1cnc(NC(=O)C2=C(O)c3ccccc3S(=O)(=O)N2C)s1 equals 4.7

The recorded inhibition for entry CCOC(=O)C1=C(C)NC(C)=C(C(=O)OC)C1c1cccc(Cl)c1Cl (configuration not stated) equals -6.4

The recorded inhibition for entry Nc1ccc(S(=O)(=O)NC(=O)c2ccccc2)cc1 equals 2.5

The recorded inhibition for entry Cc1c(NC(=O)c2coc(=O)c(Br)c2)c(=O)n(-c2ccccc2)n1C equals 1.7

The recorded inhibition for entry CCn1nc(NC(=O)c2cccnc2)c2cc3ccccc3nc21 equals -0.4

----------
Target: Voltage-gated potassium channel subunit beta-2 (Rattus norvegicus) (UniProt P62483)
Sequence (P62483 whole entry, looked up): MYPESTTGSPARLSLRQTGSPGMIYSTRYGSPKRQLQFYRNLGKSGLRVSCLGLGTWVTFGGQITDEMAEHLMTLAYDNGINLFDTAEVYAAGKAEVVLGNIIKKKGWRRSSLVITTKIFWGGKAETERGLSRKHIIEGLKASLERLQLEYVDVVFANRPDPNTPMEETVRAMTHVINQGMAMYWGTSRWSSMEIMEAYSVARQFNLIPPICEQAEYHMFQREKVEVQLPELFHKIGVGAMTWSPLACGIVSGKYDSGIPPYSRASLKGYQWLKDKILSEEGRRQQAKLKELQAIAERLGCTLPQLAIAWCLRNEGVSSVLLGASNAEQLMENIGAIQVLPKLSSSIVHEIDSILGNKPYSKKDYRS
Assay: KvBeta enzyme negative modulators, primary screen, biochemical, NADPH fluorescence (AID 622);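 note: slope of raw intensity against log time taken from 70 to 1610 s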
Details: recombinant KvBeta, 4-cyanobenzaldehyde reduction, at 10 µM, stronger effect = higher value
quantityMeasured: fluorescence slope
Output spec: single numeric token, no unit.

Example compounds with recorded fluorescence slope:
compound="CCCC1Cc2c(sc3ncnc(N)c23)CO1 (stereo not given)" assayvalue=-0.411
compound=O=C(O)CCCC(=O)Nc1ccn(-c2ccccc2)n1 assayvalue=-0.486
compound=COc1ccc(-c2nnc3sc(COc4ccccc4)nn23)cc1 assayvalue=-0.445
compound=Cc1cc(OCC(=O)Nc2ccc3oc(-c4ccncc4)nc3c2)ccc1Cl assayvalue=-0.458
compound=COc1ccccc1-c1nnc2sc(C3CCCCC3)nn12 assayvalue=-0.405

Entry Clc1ccc2c(c1)C(N1CCNCC1)=Nc1ccccc1O2 : fluorescence slope on Voltage-gated potassium channel subunit beta-2 (Rattus norvegicus) (UniProt P62483) = -0.471

Entry c1ccc(-c2nn3c(C4CCCCC4)nnc3s2)cc1 : fluorescence slope on Voltage-gated potassium channel subunit beta-2 (Rattus norvegicus) (UniProt P62483) = -0.435

----------
Assay: DUSP6 inhibitors restoring Erk phosphorylation by chemical complementation, primary imaging in DUSP6-transfected HeLa (AID 609)
Conditions: HeLa MKP-3 transfected, phospho-Erk imaging KS statistic; measured here: nuclear pErk red intensity z-score; at 10 µM; stronger effect = higher value; cells stimulated with TPA for 15 min
Attribute: z-score
Output spec: single numeric token, no unit.

Example compounds with recorded z-score:
compound=C=CCOn1c(=O)c(-c2cc3ccccc3o2)[n+]([O-])c2ccccc21 quantitymeasured=z-score assayvalue=-0.0488
compound="CCOC(=O)C1=C(C)NC(C)=C(C(=O)OC)C1c1cccc(Cl)c1Cl (stereo unspecified)" quantitymeasured=z-score assayvalue=1.2
compound=COC(=O)c1cc(Br)c(=O)n(CCc2ccc(F)cc2)c1 quantitymeasured=z-score assayvalue=1.23

The recorded z-score for entry COc1ccccc1C(CC(=O)Nc1nccs1)c1ccco1 (stereo unspecified) equals -0.714

The recorded z-score for entry CCN(CC)C(=O)CSC1=C(C#N)C(c2cccs2)C=C(C)N1 (stereo unspecified) equals 1.19

The recorded z-score for entry CCOC(=O)c1[nH]c2ccc(OC)cc2c1NC(=O)CN1CCN(c2ccccn2)CC1 equals 1.04

meta.source: PubChem BioAssay
